What Ki was measured for each of the following?
biological target: Mcl-1 protein (UniProtKB Q07820) (Homo sapiens (Human), UniProt Q07820); assay: Inhibition of Mcl-1 by the fluorescence polarisation assay (Example A, Method A); conditions: fluorescence polarization assay
Sequence (Q07820 whole entry): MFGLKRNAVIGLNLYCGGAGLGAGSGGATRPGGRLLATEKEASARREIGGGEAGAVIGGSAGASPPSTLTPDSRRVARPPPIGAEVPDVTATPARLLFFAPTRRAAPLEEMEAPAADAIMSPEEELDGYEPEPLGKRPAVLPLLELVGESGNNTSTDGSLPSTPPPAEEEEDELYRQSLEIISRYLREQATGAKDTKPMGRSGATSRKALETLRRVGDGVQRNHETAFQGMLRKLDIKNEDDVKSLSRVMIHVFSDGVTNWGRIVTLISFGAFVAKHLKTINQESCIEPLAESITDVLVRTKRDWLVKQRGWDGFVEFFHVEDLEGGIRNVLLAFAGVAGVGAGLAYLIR
Just the number plus its unit, please.

1) CCN1c2ccccc2[C@]2(CC[C@](Nc3cccc(Br)c3)(C(=O)O)CC2)C1=O    7670 nM

Provide Ki for all items below, preserving their order.
1. O=C(O)[C@]1(Nc2cccc(Cl)c2)CC[C@@]2(CC1)c1ccccc1CC2CC(COCCN1CCOCC1)COc1ccnc2c1CCC2 (single isomer, unassigned)
2. C[C@@H](COc1cccnc1)C[C@H]1Cc2ccccc2[C@]12CC[C@@](Nc1cccc(Cl)c1)(C(=O)O)CC2
3. O=C(O)[C@]1(Nc2cccc(Cl)c2)CC[C@@]2(CC1)c1ccccc1CC2CCCCc1ccccc1 (stereo partly shown)
4. Cc1cccc(C2=Cc3ccccc3[C@]23CC[C@@](Nc2cccc(Cl)c2)(C(=O)O)CC3)c1
5. CN(c1cccc(Cl)c1)[C@]1(C(=O)O)CC[C@]2(C=Cc3ccccc32)CC1
6. Cc1cnccc1OCCCN1Cc2ccccc2[C@]12CC[C@@](Nc1cccc(Cl)c1)(C(=O)O)CC2

1. 11.4 nM
2. 438 nM
3. 134 nM
4. 889 nM
5. 60500 nM
6. 295 nM
